molecular target: Nuclear factor erythroid 2-related factor 2 (Mus musculus); assay: Induction of Nrf2-dependent HO1 protein level in mouse BV-2 cells at 20 uM after 24 hrs by sandwich ELISA; format: cell-based
Readout Label: Activity (%)

>>> number("O=S(=O)(/C=C/c1ccccc1F)c1ccc(F)cc1")
241

1: O=S(=O)(/C=C/c1ccc(F)cc1)c1ccc(Cl)cc1
2: COc1ccccc1S(=O)(=O)/C=C/c1cccc(C(F)(F)F)c1
IN: // compare: 1 vs 2 , metric Activity, want the smaller Could you answer with the label of the item you picked?
OUT: 1
(1: 111%, 2: 256%)

I: O=S(=O)(/C=C/c1cccc(C(F)(F)F)c1)c1ccc(Cl)cc1
II: COc1ccccc1S(=O)(=O)/C=C/c1ccccc1C(F)(F)F
IN: Which of the two gives a bigger number for Activity: I or II ? Could you answer with the label of the item you picked?
OUT: II
(II: 328%, I: 111%)

----------
target: Nuclear factor erythroid 2-related factor 2 (Mus musculus); assay: Induction of Nrf2-dependent HO1 protein level in mouse BV-2 cells at 20 uM after 24 hrs by sandwich ELISA relative to control; format: cell-based
Readout Label: fold change (FC)

>>> number("COc1ccccc1S(=O)(=O)/C=C/c1ccccc1C(F)(F)F")
3.3

A: COc1ccc(S(=O)(=O)/C=C/c2ccccc2Cl)cc1
B: COc1cccc(S(=O)(=O)/C=C/c2cccc(Cl)c2)c1
C: COc1cccc(S(=O)(=O)/C=C/c2ccccc2Cl)c1
IN: Would you mind ranking these compounds by ascending fold change (FC)? Use the labels to give the requested order.
OUT: B, A, C
(B: 1.1, A: 1.6, C: 2.8)

I: COc1ccc(S(=O)(=O)/C=C/c2cccc(C(F)(F)F)c2)cc1
II: COc1ccccc1S(=O)(=O)/C=C/c1cccc(F)c1
IN: Which of the two gives a bigger number for fold change (FC): I or II ? Could you answer with the label of the item you picked?
OUT: II

----------
molecular target: Nuclear factor erythroid 2-related factor 2 (Mus musculus); test: Induction of Nrf2-dependent HO1 protein level in mouse BV-2 cells at 20 uM after 24 hrs by sandwich ELISA; assay type: cell-based
Readout Label: Activity (%)

>>> number("COc1ccc(S(=O)(=O)/C=C/c2ccc(F)cc2)cc1")
177
>>> number("COc1ccc(S(=O)(=O)/C=C/c2cccc(C(F)(F)F)c2)cc1OC")
153

1: COc1ccc(S(=O)(=O)/C=C/c2ccccc2OC(F)(F)F)cc1
2: COc1ccc([S+]([O-])/C=C/c2ccccc2C(F)(F)F)cc1 (stereo not drawn)
IN: Which of the two gives a bigger number for Activity: 1 or 2 ? Could you answer with the label of the item you picked?
OUT: 1

I: COc1ccc(S(=O)(=O)/C=C/c2cccc(F)c2)cc1
II: COc1ccc(/C=C/S(=O)(=O)c2ccc(OC)cc2)cc1
IN: // compare: I vs II , metric Activity, want the smaller Could you answer with the label of the item you picked?
OUT: II

1: COc1cccc(S(=O)(=O)/C=C/c2cccc(C(F)(F)F)c2)c1
2: COc1ccc(S(=O)(=O)/C=C/c2ccc(C(F)(F)F)cc2)cc1OC
IN: // compare: 1 vs 2 , metric Activity, want the smaller Could you answer with the label of the item you picked?
OUT: 2
(2: 119%, 1: 204%)

----------
target: Nuclear factor erythroid 2-related factor 2 (Mus musculus) (UniProt Q60795); assay: Induction of Nrf2-dependent HO1 protein level in mouse BV-2 cells at 20 uM after 24 hrs by sandwich ELISA; type: cell-based
Readout Label: Activity (%)

In the examples that follow, each entry is paired with its recorded Activity.
>>> number("O=S(=O)(/C=C/c1ccc(Cl)cc1)c1ccc(Cl)cc1")
117
>>> number("O=S(=O)(/C=C/c1ccccc1C(F)(F)F)c1ccccc1")
193
>>> number("O=S(=O)(/C=C/c1ccccc1Cl)c1ccc(F)cc1")
225
>>> number("COc1ccc(C(=O)/C=C/c2ccccc2C(F)(F)F)cc1")
164

a: O=S(=O)(/C=C/c1ccccc1C(F)(F)F)c1ccc(F)cc1
b: COc1ccc(S(=O)(=O)/C=C/c2ccc(C(F)(F)F)cc2)cc1
IN: Which of the two gives a bigger number for Activity: a or b ? Could you answer with the label of the item you picked?
OUT: a
(a: 248%, b: 154%)

a: COc1ccccc1S(=O)(=O)/C=C/c1cccc(Cl)c1
b: O=S(=O)(/C=C/c1cccc(C(F)(F)F)c1)c1ccc(F)cc1
IN: // compare: a vs b , metric Activity, want the smaller Could you answer with the label of the item you picked?
OUT: b

a: COc1ccc(S(=O)(=O)/C=C/c2ccccc2F)cc1
b: COc1ccccc1S(=O)(=O)/C=C/c1ccc(F)cc1
IN: // compare: a vs b , metric Activity, want the smaller Could you answer with the label of the item you picked?
OUT: a
(a: 174%, b: 259%)

I: COc1ccccc1S(=O)(=O)/C=C/c1ccc(Cl)cc1
II: COc1cccc(S(=O)(=O)/C=C/c2ccc(F)cc2)c1
III: O=S(=O)(/C=C/c1cccc(F)c1)c1ccc(Cl)cc1
IN: Would you mind ranking these compounds by ascending Activity? Use the labels to give the requested order.
OUT: III, II, I

A: COc1ccc(S(=O)(=O)/C=C/c2ccccc2C(F)(F)F)cc1
B: O=S(=O)(/C=C/c1ccc(C(F)(F)F)cc1)c1ccc(Cl)cc1
C: COc1ccccc1S(=O)(=O)/C=C/c1ccccc1Cl
IN: Arrange by Activity, high to low. Use the labels to give the requested order.
OUT: C, A, B
(C: 382%, A: 258%, B: 140%)

A: COc1ccc(S(=O)(=O)/C=C/c2ccccc2C(F)(F)F)cc1OC
B: COc1ccc(S(=O)(=O)/C=C/c2ccccc2N)cc1
C: COc1ccccc1S(=O)(=O)/C=C/c1cccc(F)c1
IN: Would you mind ranking these compounds by ascending Activity? Use the labels to give the requested order.
OUT: B, A, C
(B: 141%, A: 204%, C: 353%)

I: COc1cccc(S(=O)(=O)/C=C/c2ccccc2Cl)c1
II: O=S(=O)(/C=C/c1cccc(F)c1)c1ccc(F)cc1
IN: Which of the two gives a bigger number for Activity: I or II ? Could you answer with the label of the item you picked?
OUT: I
(I: 284%, II: 177%)

----------
biological target: Nuclear factor erythroid 2-related factor 2 (Mus musculus) (UniProt Q60795); assay: Induction of Nrf2-dependent HO1 protein level in mouse BV-2 cells at 20 uM after 24 hrs by sandwich ELISA relative to control; assay type: cell-based
Readout Label: fold change (FC)

P: COc1ccc(S(=O)(=O)/C=C/c2cccc(Cl)c2)cc1
Q: COc1ccccc1S(=O)(=O)/C=C/c1ccc(Cl)cc1
IN: // compare: P vs Q , metric fold change (FC), want the smaller Could you answer with the label of the item you picked?
OUT: P

----------
molecular target: Nuclear factor erythroid 2-related factor 2 (Mus musculus); assay: Induction of Nrf2-dependent HO1 protein level in mouse BV-2 cells at 20 uM after 24 hrs by sandwich ELISA; format: cell-based
Readout Label: Activity (%)

>>> number("COc1cccc(S(=O)(=O)/C=C/c2ccc(C(F)(F)F)cc2)c1")
148
>>> number("O=S(=O)(/C=C/c1ccccc1F)c1ccc(Cl)cc1")
107
>>> number("O=S(=O)(/C=C/c1cccc(Cl)c1)c1ccc(Cl)cc1")
127
>>> number("O=S(=O)(/C=C/c1cccc(Cl)c1)c1ccc(F)cc1")
137
>>> number("O=S(=O)(/C=C/c1ccc(Cl)cc1)c1ccc(F)cc1")
112
>>> number("O=S(=O)(/C=C/c1ccc(C(F)(F)F)cc1)c1ccc(F)cc1")
125

----------
Target: UniProtKB Q60795
Sequence (whole entry): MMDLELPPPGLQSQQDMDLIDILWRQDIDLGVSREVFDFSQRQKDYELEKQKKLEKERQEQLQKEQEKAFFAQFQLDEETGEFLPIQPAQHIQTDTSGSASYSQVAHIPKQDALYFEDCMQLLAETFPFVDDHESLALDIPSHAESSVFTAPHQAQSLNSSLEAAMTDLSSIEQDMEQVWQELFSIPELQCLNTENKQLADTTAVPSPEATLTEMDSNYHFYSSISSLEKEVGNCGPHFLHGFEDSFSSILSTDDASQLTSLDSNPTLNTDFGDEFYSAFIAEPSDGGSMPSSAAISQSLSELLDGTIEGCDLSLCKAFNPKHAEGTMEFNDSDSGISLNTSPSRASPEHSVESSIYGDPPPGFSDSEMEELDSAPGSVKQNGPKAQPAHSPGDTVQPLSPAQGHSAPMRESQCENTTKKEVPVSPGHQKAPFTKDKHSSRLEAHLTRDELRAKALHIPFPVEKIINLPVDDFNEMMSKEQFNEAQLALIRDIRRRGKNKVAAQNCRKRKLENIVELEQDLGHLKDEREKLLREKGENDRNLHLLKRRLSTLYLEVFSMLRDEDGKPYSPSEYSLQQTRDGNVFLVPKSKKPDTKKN
Test: Induction of Nrf2-dependent HO1 protein level in mouse BV-2 cells at 20 uM after 24 hrs by sandwich ELISA
Type: cell-based
Readout Label: Activity (%)

>>> number("O=S(=O)(/C=C/c1ccccc1Cl)c1ccc(Cl)cc1")
169
>>> number("COc1ccccc1S(=O)(=O)/C=C/c1ccccc1F")
373
>>> number("O=S(=O)(/C=C/c1ccc(C(F)(F)F)cc1)c1ccccc1")
155
>>> number("COc1ccc(S(=O)(=O)/C=C/c2ccccc2OC)cc1")
126
>>> number("COc1cccc(S(=O)(=O)/C=C/c2cccc(Cl)c2)c1")
111
>>> number("COc1cccc(S(=O)(=O)/C=C/c2cccc(F)c2)c1")
136
>>> number("COc1ccccc1S(=O)(=O)/C=C/c1ccc(C(F)(F)F)cc1")
357
>>> number("COc1ccc(S(=O)(=O)/C=C/c2cccc(C(F)(F)F)c2)cc1")
214

1: COc1cccc(S(=O)(=O)/C=C/c2ccccc2F)c1
2: O=S(=O)(/C=C/c1ccccc1C(F)(F)F)c1ccc(Cl)cc1
IN: Which of the two gives a bigger number for Activity: 1 or 2 ? Could you answer with the label of the item you picked?
OUT: 2
(2: 242%, 1: 148%)

P: O=S(=O)(/C=C/c1ccc(F)cc1)c1ccc(F)cc1
Q: COc1cccc(S(=O)(=O)/C=C/c2ccc(Cl)cc2)c1
IN: Which of the two gives a bigger number for Activity: P or Q ? Could you answer with the label of the item you picked?
OUT: Q
(Q: 228%, P: 141%)

a: COc1ccc(S(=O)(=O)/C=C/c2cccc(Cl)c2)cc1
b: COc1cccc(S(=O)(=O)/C=C/c2ccccc2C(F)(F)F)c1
IN: // compare: a vs b , metric Activity, want the smaller Could you answer with the label of the item you picked?
OUT: a
